Listed binders paired with reported pKd
- measured target: T1, full-length (FL) human 14-3-3γ protein (human, UniProt P61981 1-247)
- T1 construct: 14-3-3 gamma, human, full length; also called 14-3-3γ FL
- T1 sequence (looked up): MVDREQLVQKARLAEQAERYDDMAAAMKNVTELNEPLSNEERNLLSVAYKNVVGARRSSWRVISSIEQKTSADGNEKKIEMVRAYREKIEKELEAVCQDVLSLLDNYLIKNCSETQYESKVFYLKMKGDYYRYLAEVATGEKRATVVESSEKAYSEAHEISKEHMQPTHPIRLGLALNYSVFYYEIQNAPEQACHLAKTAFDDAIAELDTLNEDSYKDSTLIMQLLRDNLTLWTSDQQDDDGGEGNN
- method: fluorescence polarisation; fluorescence anisotropy; dilution series of 14-3-3γ (starting at 500 μM) to 10 nM FAM-labeled peptide; 10 mM HEPES pH 7.4, 150 mM NaCl, 0.1% Tween20, 1 mg/mL BSA; room temperature; Hill fit; triplicates
- experimental context: both partners purified
pKd: −log10 of the molar value. Where no end group is shown, it is not given here. [ ]: non-standard residue; d: D form. The star is where a group is joined. 5FAM = O=C1OC2(c3ccc(O)cc3Oc3cc(O)ccc32)c2ccc(C(=O)*)cc21; pT = C[C@@H](OP(=O)(O)O)[C@H](N)C(=O)O; pS = N[C@@H](COP(=O)(O)O)C(=O)O; Ahx = NCCCCCC(=O)O
readout name: pKd

binder: {5FAM-Ahx}-KGLPRPK[pS]AGTATQM-NH2 (SMILES CSCC[C@H](NC(=O)[C@H](CCC(N)=O)NC(=O)[C@@H](NC(=O)[C@H](C)NC(=O)[C@@H](NC(=O)CNC(=O)[C@H](C)NC(=O)[C@H](COP(=O)(O)O)NC(=O)[C@H](CCCCN)NC(=O)[C@@H]1CCCN1C(=O)[C@H](CCCNC(=N)N)NC(=O)[C@@H]1CCCN1C(=O)[C@H](CC(C)C)NC(=O)CNC(=O)[C@H](CCCCN)NC(=O)CCCCCNC(=O)c1ccc2c(c1)C(=O)OC21c2ccc(O)cc2Oc2cc(O)ccc21)[C@@H](C)O)[C@@H](C)O)C(N)=O, Bcl-2-associated agonist of cell death (BAD), seven residues before and after phosphosite 134; source: synthetic peptide, bought: GenScript) [BAD pS134 peptide (peptide 6), FAM-labelled]
endpoint result: 4.80
--
binder: SAKSRLQ[pT]APVPMPD-NH2 (not fully specified (N-terminus), Tau, seven residues before and after phosphosite 245; numbers count on: P10636-8; source: synthetic peptide, bought: GenScript) [Tau pT245 peptide (peptide 2), FAM-labelled]
endpoint result: 5.07
--
binder: {5FAM-Ahx}-SGDRSGY[pS]SPGSPGT-NH2 (SMILES C[C@@H](O)[C@H](NC(=O)CNC(=O)[C@@H]1CCCN1C(=O)[C@H](CO)NC(=O)CNC(=O)[C@@H]1CCCN1C(=O)[C@H](CO)NC(=O)[C@H](COP(=O)(O)O)NC(=O)[C@H](Cc1ccc(O)cc1)NC(=O)CNC(=O)[C@H](CO)NC(=O)[C@H](CCCNC(=N)N)NC(=O)[C@H](CC(=O)O)NC(=O)CNC(=O)[C@H](CO)NC(=O)CCCCCNC(=O)c1ccc2c(c1)C(=O)OC21c2ccc(O)cc2Oc2cc(O)ccc21)C(N)=O, Tau, seven residues before and after phosphosite 198; numbers count on: P10636-8; source: synthetic peptide, bought: GenScript) [Tau pS198 peptide (peptide 4), FAM-labelled]
endpoint result: 4.15
--
binder: {5FAM-Ahx}-FPRARTV[pS]VSVPPHG-NH2 (SMILES CC(C)[C@H](NC(=O)[C@H](COP(=O)(O)O)NC(=O)[C@@H](NC(=O)[C@@H](NC(=O)[C@H](CCCNC(=N)N)NC(=O)[C@H](C)NC(=O)[C@H](CCCNC(=N)N)NC(=O)[C@@H]1CCCN1C(=O)[C@H](Cc1ccccc1)NC(=O)CCCCCNC(=O)c1ccc2c(c1)C(=O)OC21c2ccc(O)cc2Oc2cc(O)ccc21)[C@@H](C)O)C(C)C)C(=O)N[C@@H](CO)C(=O)N[C@H](C(=O)N1CCC[C@H]1C(=O)N1CCC[C@H]1C(=O)N[C@@H](Cc1c[nH]cn1)C(=O)NCC(N)=O)C(C)C, Notch-4, seven residues before and after phosphosite 1847; also called NOTCH pS1847; source: synthetic peptide, bought: GenScript) [Notch 4 pS1847 peptide (peptide 3), FAM-labelled]
endpoint result: 4.15
